# TARGET: T1, HLA-B*07:02 (human, biotinylated heavy chain)
# T1 construct: Conditional HLA class I complex as for m1
# ASSAY_PROTOCOL: UV peptide exchange; HLA class I ELISA;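 note: ELISA detecting beta2-microglobulin of intact HLA class I complexes captured on streptavidin wells after UV-induced exchange, absorbance read-out, reference is UV-irradiated conditional complex lacking rescue peptide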
TEST_READOUT: Exch II (%)
All answers are understood in %, so give the number only.

Look up Exch II (%): YHREKQLIA [Peptide 6, 9-mer YHREKQLIA derived from P22 (SEQ ID NO: 1003)]
10.5

Look up Exch II (%): IAMDSAITL [Peptide 2, 9-mer IAMDSAITL derived from FUS1 (SEQ ID NO: 1001)]
65.4

Look up Exch II (%): AMDSAITLW [Peptide 1, 9-mer AMDSAITLW derived from FUS1 (SEQ ID NO: 1001)]
9.4

Look up Exch II (%): SLYHREKQL [Peptide 4, 9-mer SLYHREKQL derived from P22 (SEQ ID NO: 1003)]
10.8

Look up Exch II (%): SLIAMDSAI [Peptide 3, 9-mer SLIAMDSAI derived from FUS1 (SEQ ID NO: 1001)]
11.3

Look up Exch II (%): HREKQLIAM [Peptide 7, 9-mer HREKQLIAM derived from P22 (SEQ ID NO: 1003)]
12.6

Look up Exch II (%): KQLIAMDSA [Peptide 9, 9-mer KQLIAMDSA derived from P22 (SEQ ID NO: 1003)]
10.1

Look up Exch II (%): LIAMDSAIT [Peptide 10, 9-mer LIAMDSAIT derived from P22 (SEQ ID NO: 1003)]
9.2

Look up Exch II (%): LYHREKQLI [Peptide 5, 9-mer LYHREKQLI derived from P22 (SEQ ID NO: 1003)]
10
